- system-tested: UniProtKB Q8ILY1
- Sequence (Q8ILY1 entry or part of it): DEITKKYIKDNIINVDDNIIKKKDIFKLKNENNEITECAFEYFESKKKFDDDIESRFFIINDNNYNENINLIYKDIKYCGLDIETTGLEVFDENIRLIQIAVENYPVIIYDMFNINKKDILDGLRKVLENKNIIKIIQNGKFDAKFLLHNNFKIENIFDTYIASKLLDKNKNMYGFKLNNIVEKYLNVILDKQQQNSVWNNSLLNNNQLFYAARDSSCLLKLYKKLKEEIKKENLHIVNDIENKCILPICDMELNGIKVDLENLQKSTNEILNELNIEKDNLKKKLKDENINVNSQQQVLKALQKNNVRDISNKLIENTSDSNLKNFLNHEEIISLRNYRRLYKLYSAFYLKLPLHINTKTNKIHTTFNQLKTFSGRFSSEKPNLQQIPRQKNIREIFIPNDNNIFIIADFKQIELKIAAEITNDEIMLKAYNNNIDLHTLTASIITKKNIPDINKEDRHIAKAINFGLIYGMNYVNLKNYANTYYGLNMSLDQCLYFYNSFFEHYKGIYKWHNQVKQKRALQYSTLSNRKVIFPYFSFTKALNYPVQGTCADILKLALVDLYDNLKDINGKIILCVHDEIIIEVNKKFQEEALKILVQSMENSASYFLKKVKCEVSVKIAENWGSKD
- test-description: Fluorescence-based high-throughput DNA polymerase assay (molecular beacon), primary screen and dose-response
- Assay type: biochemical
- condition: DRC-1; 90'; conc 10
Answer FALSE if % inhibition Apol 90' is under 60%, and TRUE if it is 60% or more.

Worked set:
compound	label-value
O=c1nc(/C=C/c2ccc(Br)cc2)oc2ccccc12	FALSE
N#CC(C#N)=C1SCN(c2cccc(Cl)c2)CS1	FALSE
O=C1NN(c2ccc(Cl)c(Cl)c2)C(=O)/C1=C/c1ccc(-c2ccc3c(c2)C(=O)OC3)o1	TRUE
Cc1ccc(CNC(=O)c2cnn3c(O)cc(CSc4ccc(Cl)cc4)nc23)cc1	FALSE
O=C1Nc2ccc(I)cc2C1=Cc1cc(Br)c(O)c(Br)c1	FALSE

Input line: Say whether Cc1cc(C)c2c(c1)C1C=CCC1C(c1ccc(C(=O)O)cc1)N2 (centres unmarked) shows % inhibition Apol 90' of 60% or more.
Output line: FALSE

Input line: Moving on to the next compound: CCOc1nc2cccc(C(=O)OC(C)OC(=O)OC3CCCCC3)c2n1Cc1ccc(-c2ccccc2-c2nnn[nH]2)cc1 (centres unmarked)
Output line: TRUE

Input line: Moving on to the next compound: Cc1ccccc1NC(=O)Cn1ccc2c(=O)[nH]ccc21 [Molecule 50, O=C(Cn1ccc2c1cc[nH]c2=O)Nc1ccc(cc1)C]
Output line: FALSE
